This collection of values is drawn from PubChem BioAssay (NCATS).

Assay: Quantitative High-Throughput drug screen in 47 multiple myeloma cell lines against the NCATS MIPE library collection: MOLP8_DSMZ cell viability assay (AID 1918977); note: nearly all actives have a fitted effect of over 45% in size
Conditions: MOLP8 myeloma viability, CellTiter-Glo ATP luminescence, 48 h; series mostly up to 45.8 µM
Records with an inconclusive call do not appear. Calls of active or inactive are those of the source. Calls come from the whole dose curve; as a rule, active = well fitted cell-killing curve with a large enough effect; inconclusive = small, poorly fitted or top-dose-only effect, or effect the other way; inactive = no such curve, though single readings can be large or run the other way.
Use one of these outcomes when replying: TRUE for active, FALSE for inactive

Query :: I'd appreciate the recorded outcome for O=C(O)C(=O)Nc1cccc(C2=NN=N[N]2)c1 from this test.
Result :: FALSE

Query :: Cool, now C[N+]1(C)[C@@H]2C[C@@H](OC(=O)C(O)(c3cccs3)c3cccs3)C[C@H]1[C@@H]1O[C@@H]12
Result :: FALSE
